The values you see were collected from ChEMBL document CHEMBL1138200.

target: Mitogen-activated protein kinase kinase kinase 20 (Homo sapiens, UniProt Q9NYL2); assay: Inhibition of MLK7
Sequence (Q9NYL2 whole entry): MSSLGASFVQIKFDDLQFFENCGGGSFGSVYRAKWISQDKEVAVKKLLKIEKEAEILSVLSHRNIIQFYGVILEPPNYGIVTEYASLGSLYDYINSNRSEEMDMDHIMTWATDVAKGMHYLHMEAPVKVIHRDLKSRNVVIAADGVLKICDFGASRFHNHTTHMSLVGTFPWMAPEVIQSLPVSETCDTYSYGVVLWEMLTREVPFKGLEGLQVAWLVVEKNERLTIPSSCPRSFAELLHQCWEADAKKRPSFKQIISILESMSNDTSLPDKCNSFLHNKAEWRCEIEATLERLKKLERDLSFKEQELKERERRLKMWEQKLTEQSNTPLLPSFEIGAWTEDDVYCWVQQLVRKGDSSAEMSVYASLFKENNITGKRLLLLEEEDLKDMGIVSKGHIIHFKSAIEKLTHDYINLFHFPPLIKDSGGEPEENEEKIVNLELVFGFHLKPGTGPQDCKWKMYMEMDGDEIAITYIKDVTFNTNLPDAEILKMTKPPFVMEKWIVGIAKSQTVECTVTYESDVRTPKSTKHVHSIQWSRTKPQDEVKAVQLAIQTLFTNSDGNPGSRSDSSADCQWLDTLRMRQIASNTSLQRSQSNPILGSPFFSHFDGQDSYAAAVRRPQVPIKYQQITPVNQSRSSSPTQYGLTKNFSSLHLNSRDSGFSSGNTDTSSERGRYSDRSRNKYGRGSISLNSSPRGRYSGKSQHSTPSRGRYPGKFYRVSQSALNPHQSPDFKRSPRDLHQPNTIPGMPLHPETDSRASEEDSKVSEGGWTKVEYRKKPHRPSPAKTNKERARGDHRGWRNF
VALUE_TYPE: pIC50
Scale: pIC50 equals -log10([C]), with [C] in mol/L.

>  <SMILES>
OCCCn1cnc2ccc(-c3c(-c4ccccn4)nn4c3CCC4)cc21

>  <EXPERIMENTAL_TARGET>
Mitogen-activated protein kinase kinase kinase 20 (Homo sapiens, UniProt Q9NYL2)

>  <RESULT_VALUE>
6.15

$$$$
>  <SMILES>
Cn1cnc2ccc(-c3c(-c4ccccn4)nn4c3CCC4)cc21

>  <EXPERIMENTAL_TARGET>
Mitogen-activated protein kinase kinase kinase 20 (Homo sapiens, UniProt Q9NYL2)

>  <RESULT_VALUE>
5.88

$$$$
>  <SMILES>
c1ccc(-c2n[nH]cc2-c2ccnc3ccccc23)nc1

>  <EXPERIMENTAL_TARGET>
Mitogen-activated protein kinase kinase kinase 20 (Homo sapiens, UniProt Q9NYL2)

>  <RESULT_VALUE>
5.85

$$$$

Query: GET /values?readout=pIC50&item= Cc1cccc(-c2nn3c(c2-c2ccc4ncn(C)c4c2)CCC3)n1
Reply: 5.63
